Kindly supply the reported IC50 values for the records listed here.
- SYSTEM TESTED: mTORC1 (Homo sapiens, UniProt P42345+Q8N122+Q9BVC4)
- Assay type: cell-based, MDA-MB-468
Give bare numbers, in nM.

{"SMILES INPUT": "CO[C@H]1C[C@@H]2CC[C@@H](C)[C@@](O)(O2)C(=O)C(=O)N2CCCC[C@H]2C(=O)O[C@H]([C@H](C)C[C@@H]2CC[C@@H](OC(=O)NCCOCCOCCOCCOCCOCCOCCOCCOCCC(=O)N3CCc4cc(Cn5nc(-c6ccc7oc(N)nc7c6)c6c(N)ncnc65)ccc4C3)[C@H](OC)C2)C[C@@H](O)[C@H](C)/C=C(\\C)[C@@H](O)[C@@H](OC)C(=O)[C@H](C)C[C@H](C)/C=C/C=C/C=C/1C", "IC50 / nM": 0.17}
{"SMILES INPUT": "CO[C@H]1C[C@@H]2CC[C@@H](C)[C@@](O)(O2)C(=O)C(=O)N2CCCC[C@H]2C(=O)O[C@H]([C@H](C)C[C@@H]2CC[C@@H](OC(=O)NCCOCCOCCOCCOCCOCCOCCOCCOCCC(=O)NCCCCn3nc(-c4ccc5oc(N)nc5c4)c4c(N)ncnc43)[C@H](OC)C2)C[C@@H](OC)[C@H](C)/C=C(\\C)[C@@H](O)[C@@H](OC)C(=O)[C@H](C)C[C@H](C)/C=C/C=C/C=C/1C", "IC50 / nM": 0.49}
{"SMILES INPUT": "CO[C@H]1C[C@@H]2CC[C@@H](C)[C@@](O)(O2)C(=O)C(=O)N2CCCC[C@H]2C(=O)O[C@H]([C@H](C)C[C@@H]2CC[C@@H](OC(=O)NCCOCCOCCOCCOCCOCCOCCOCCOCCC(=O)NCCS(=O)(=O)c3ccc(C(=O)N4CCOc5ccc(-c6ccc(N)nc6)cc5C4)c(C)c3F)[C@H](OC)C2)C[C@@H](O)[C@H](C)/C=C(\\C)[C@@H](O)[C@@H](OC)C(=O)[C@H](C)C[C@H](C)/C=C/C=C/C=C/1C", "IC50 / nM": 0.19}

Now examine the next entry.
Noted for CO[C@H]1C[C@@H]2CC[C@@H](C)[C@@](O)(O2)C(=O)C(=O)N2CCCC[C@H]2C(=O)O[C@H]([C@H](C)C[C@@H]2CC[C@@H](OC(=O)NCCOCCOCCOCCOCCOCCOCCOCCOCCC(=O)NCCCCn3nc(-c4ccc5oc(N)nc5c4)c4c(N)ncnc43)[C@H](OC)C2)C[C@@H](O)[C@H](C)/C=C(\C)[C@@H](O)[C@@H](OC)C(=O)[C@H](C)C[C@H](C)/C=C/C=C/C=C/1C : its IC50 reads 0.24

----------
- SYSTEM TESTED: mTORC1 (Homo sapiens, UniProt P42345+Q8N122+Q9BVC4)
- Assay type: cell-based, MDA-MB-468
Kindly supply the reported pIC50 values for the records listed here.
Answers are plain numbers, as −log10 of the molar value.

Consider the reported pIC50 for these compounds:
{"SMILES INPUT": "CO[C@H]1C[C@@H]2CC[C@@H](C)[C@@](O)(O2)C(=O)C(=O)N2CCCC[C@H]2C(=O)O[C@H]([C@H](C)C[C@@H]2CC[C@@H](OC(=O)NCCOCCOCCOCCOCCOCCOCCOCCOCCC(=O)NCCCCn3nc(-c4ccc5oc(N)nc5c4)c4c(N)ncnc43)[C@H](OC)C2)C[C@@H](O)[C@H](C)/C=C(\\C)[C@@H](O)[C@@H](OC)C(=O)[C@H](C)C[C@H](C)/C=C/C=C/C=C/1C", "pIC50": 8.89}
{"SMILES INPUT": "CO[C@H]1C[C@@H]2CC[C@@H](C)[C@@](O)(O2)C(=O)C(=O)N2CCCC[C@H]2C(=O)O[C@H]([C@H](C)C[C@@H]2CC[C@@H](OC(=O)NCCOCCOCCOCCOCCOCCOCCOCCOCCC(=O)NCCCCn3nc(-c4ccc5oc(N)nc5c4)c4c(N)ncnc43)[C@H](OC)C2)C[C@@H](OC)[C@H](C)/C=C(\\C)[C@@H](O)[C@@H](OC)C(=O)[C@H](C)C[C@H](C)/C=C/C=C/C=C/1C", "pIC50": 8.85}
{"SMILES INPUT": "CO[C@H]1C[C@@H]2CC[C@@H](C)[C@@](O)(O2)C(=O)C(=O)N2CCCC[C@H]2C(=O)O[C@H]([C@H](C)C[C@@H]2CC[C@@H](OC(=O)NCCOCCOCCOCCOCCOCCOCCOCCOCCC(=O)N3CCc4cc(Cn5nc(-c6ccc7oc(N)nc7c6)c6c(N)ncnc65)ccc4C3)[C@H](OC)C2)C[C@@H](O)[C@H](C)/C=C(\\C)[C@@H](O)[C@@H](OC)C(=O)[C@H](C)C[C@H](C)/C=C/C=C/C=C/1C", "pIC50": 8.80}

Now examine the next entry.
Noted for CO[C@H]1C[C@@H]2CC[C@@H](C)[C@@](O)(O2)C(=O)C(=O)N2CCCC[C@H]2C(=O)O[C@H]([C@H](C)C[C@@H]2CC[C@@H](OC(=O)NCCOCCOCCOCCOCCOCCOCCOCCOCCC(=O)NCCS(=O)(=O)c3ccc(C(=O)N4CCOc5ccc(-c6ccc(N)nc6)cc5C4)c(C)c3F)[C@H](OC)C2)C[C@@H](O)[C@H](C)/C=C(\C)[C@@H](O)[C@@H](OC)C(=O)[C@H](C)C[C@H](C)/C=C/C=C/C=C/1C : its pIC50 reads 9.01
